This section presents compounds with their documented Kd values.
Test Target: UniProt:P61088
Sequence (P61088 whole entry, looked up): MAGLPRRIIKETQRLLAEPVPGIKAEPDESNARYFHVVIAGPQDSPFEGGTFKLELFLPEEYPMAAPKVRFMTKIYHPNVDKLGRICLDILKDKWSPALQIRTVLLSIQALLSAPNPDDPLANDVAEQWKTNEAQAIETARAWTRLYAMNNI
Assay Method Text: UBE2N binders by NMR, biophysical, purified protein (AID 1552)
Test Settings: NMR binding to purified UBE2N
Calls of active or inactive are those of the source. The rule behind the calls is not given here.
Test Readout: Kd

Compound: CCC(=O)n1nc(-c2ccco2)nc1N
Test Readout: Kd
Recorded Value: > 4 mM (inactive)
//
Compound: NC(=O)c1ccsc1NC(=O)C1=COCCO1
Test Readout: Kd
Recorded Value: > 4 mM (inactive)
//
Compound: O=C(NCc1n[nH]c(=O)c2ccccc12)C1CC1
Test Readout: Kd
Recorded Value: > 4 mM (inactive)
//
Compound: O=C1CNc2cc(C(=O)O)ccc2N1
Test Readout: Kd
Recorded Value: > 4 mM (inactive)
//
Compound: Cc1cc2c(N)cccc2nn1
Test Readout: Kd
Recorded Value: > 4 mM (inactive)
//
Compound: CN(C)C1CCS(=O)(=O)C1 (stereo not given)
Test Readout: Kd
Recorded Value: > 4 mM (inactive)
//
Compound: O=[n+]1cc(-c2ccccc2)n([O-])c2c1CCC2
Test Readout: Kd
Recorded Value: > 4 mM (inactive)
//
Compound: COc1ccc2[nH]cc(CCNC(C)=O)c2c1
Test Readout: Kd
Recorded Value: > 4 mM (inactive)
//
Compound: c1ccc(-n2ncc3c(NCc4ccco4)ncnc32)cc1
Test Readout: Kd
Recorded Value: > 4 mM (inactive)
//
Compound: Cc1csc(SCC(=O)N2CCCC2)n1
Test Readout: Kd
Recorded Value: > 4 mM (inactive)
//
Compound: COc1ccc(Cl)cc1-c1nc(-c2ccncc2)no1
Test Readout: Kd
Recorded Value: > 4 mM (inactive)
//
Compound: O=C1C2CC=CCC2C(=O)N1c1ccccc1 (stereo not given)
Test Readout: Kd
Recorded Value: > 4 mM (inactive)
//
Compound: Cn1c(NCc2ccco2)nc2ccccc21
Test Readout: Kd
Recorded Value: > 4 mM (inactive)
//
Compound: O=C(Nc1cccnc1)N1CCOCC1
Test Readout: Kd
Recorded Value: > 4 mM (inactive)
//
Compound: Nc1nc(-c2ccccc2)ns1
Test Readout: Kd
Recorded Value: > 4 mM (inactive)
//
Compound: Nc1ccc2c(c1)CCCC2=O
Test Readout: Kd
Recorded Value: > 4 mM (inactive)
//
Compound: NC(=O)c1ccc(N2C(=O)C=CC2=O)cc1Cl
Test Readout: Kd
Recorded Value: > 4 mM (inactive)
//
Compound: O=CN1CCN(C2CC(=O)N(c3ccccc3)C2=O)CC1 (stereo not given)
Test Readout: Kd
Recorded Value: > 4 mM (inactive)
//
Compound: CC(=O)c1csc(-c2cc(C)on2)n1
Test Readout: Kd
Recorded Value: > 4 mM (inactive)
//
Compound: Cc1cc(C)nc(/N=C(\N)N2CCc3ccccc32)n1
Test Readout: Kd
Recorded Value: > 4 mM (inactive)
//
Compound: COc1cc(O)c(C)c(O)c1
Test Readout: Kd
Recorded Value: > 4 mM (inactive)
//
Compound: COc1cc(O)c(C(C)=O)c(OC)c1
Test Readout: Kd
Recorded Value: > 4 mM (inactive)
//
Compound: O=C(/C=C1\SC(=O)NC1=O)NCc1ccccc1
Test Readout: Kd
Recorded Value: > 4 mM (inactive)
//
Compound: CC(=O)Nc1ccn(Cc2c(F)cccc2Cl)n1
Test Readout: Kd
Recorded Value: > 4 mM (inactive)
//
Compound: Cc1nc(-c2ccc(CO)s2)cs1
Test Readout: Kd
Recorded Value: > 4 mM (inactive)
//
Compound: O=S(=O)(c1cccc(Cl)c1)N1CCCC1
Test Readout: Kd
Recorded Value: > 4 mM (inactive)
//
Compound: O=C(O)C1CNc2ccccc2O1 (stereo not given)
Test Readout: Kd
Recorded Value: > 4 mM (inactive)
//
Compound: CC(=O)Nc1cccc(NC(=O)c2cccnc2)c1
Test Readout: Kd
Recorded Value: > 4 mM (inactive)
//
Compound: c1ccc(Cc2nnc3sc(-c4ccccn4)nn23)cc1
Test Readout: Kd
Recorded Value: > 4 mM (inactive)
//
Compound: NCc1ccccc1N1CCCCC1
Test Readout: Kd
Recorded Value: > 4 mM (inactive)
//
Compound: Cc1noc(-c2ccccc2)c1C(=O)O
Test Readout: Kd
Recorded Value: > 4 mM (inactive)
//
Compound: COc1cc(NC(=O)c2ccccc2)c(C)cc1N
Test Readout: Kd
Recorded Value: > 4 mM (inactive)
//
Compound: CC(=O)Nc1nc(C)nc(-c2ccccc2)c1C(C)=O
Test Readout: Kd
Recorded Value: > 4 mM (inactive)
//
Compound: Cc1ccccc1-n1c(-c2ccncc2)n[nH]c1=S
Test Readout: Kd
Recorded Value: > 4 mM (inactive)
//
Compound: O=C1CC[C@]23/C=C/C(=O)NCCCCNCCCNC(=O)/C=C/c4ccc(c2c4)O[C@@H]3C1
Test Readout: Kd
Recorded Value: > 4 mM (inactive)
//
Compound: COC(=O)/C(C)=C\CC12OC(C)(C)C3CC(C=C4C(=O)c5c(OC)c6c(c(CC=C(C)C)c5OC431)OC(C)(CCC=C(C)C)C=C6)C2=O (stereo not given)
Test Readout: Kd
Recorded Value: > 4 mM (inactive)
//
Compound: c1ccc(C[N+]23CCN(CC2)c2ccccc23)cc1
Test Readout: Kd
Recorded Value: > 4 mM (inactive)
//
Compound: CN(C)Cc1c(N)cccc1O
Test Readout: Kd
Recorded Value: > 4 mM (inactive)
//
Compound: c1nnc2c3c4c(sc3ncn12)CCCC4
Test Readout: Kd
Recorded Value: > 4 mM (inactive)
//
Compound: O=c1ccc2cc(O)c(O)cc2o1
Test Readout: Kd
Recorded Value: > 4 mM (inactive)
//
Compound: Nc1ccccc1-n1cccn1
Test Readout: Kd
Recorded Value: > 4 mM (inactive)
//
Compound: Cn1nc(-c2cccs2)cc1N
Test Readout: Kd
Recorded Value: > 4 mM (inactive)
//
Compound: CCOC(=O)c1c(C)[nH]c2ccc(O)cc12
Test Readout: Kd
Recorded Value: > 4 mM (inactive)
//
Compound: O=C(NC(=S)NCCO)c1ccccc1
Test Readout: Kd
Recorded Value: > 4 mM (inactive)
//
Compound: COC(=O)c1cc(-c2c(C)nn(-c3ccccc3)c2C)n[nH]1
Test Readout: Kd
Recorded Value: > 4 mM (inactive)
//
Compound: CC1=C(C(N)=O)C(c2ccccc2)NC(=O)N1 (stereo not given)
Test Readout: Kd
Recorded Value: > 4 mM (inactive)
//
Compound: O=C(NCc1cccs1)c1ccncc1
Test Readout: Kd
Recorded Value: > 4 mM (inactive)
//
Compound: Cc1cccc(NC(=O)Nc2cc(C)on2)c1
Test Readout: Kd
Recorded Value: > 4 mM (inactive)
//
Compound: c1cncc(Cn2cccc2)c1
Test Readout: Kd
Recorded Value: > 4 mM (inactive)
//
Compound: Cc1ccc(NC(=O)CC2NCCNC2=O)c(C)c1 (stereo not given)
Test Readout: Kd
Recorded Value: > 4 mM (inactive)
//
Compound: COC(=O)c1oc2ccc(Cl)cc2c1NC(C)=O
Test Readout: Kd
Recorded Value: > 4 mM (inactive)
//
Compound: COc1ccc([C@@H]2CC(=O)c3c(O)cc(O[C@@H]4O[C@H](CO[C@H]5O[C@@H](C)[C@H](O)[C@@H](O)[C@H]5O)[C@@H](O)[C@H](O)[C@H]4O)cc3O2)cc1O
Test Readout: Kd
Recorded Value: > 4 mM (inactive)
//
Compound: O=C(O)CCCNC(=O)c1ccccc1C(=O)O
Test Readout: Kd
Recorded Value: > 4 mM (inactive)
//
Compound: NC(=O)c1cc(N)cc(C(N)=O)c1
Test Readout: Kd
Recorded Value: > 4 mM (inactive)
//
Compound: CNC(=O)c1cc(C)c(-c2ccccc2)s1
Test Readout: Kd
Recorded Value: > 4 mM (inactive)

Source listed as PubChem BioAssay AID1552.
